Target: full-length human Mineralocorticoid Receptor (MR) (Homo sapiens, UniProt P08235)
Construct: host or cells: PathHunter CHO-K1 cells
Sequence (P08235 1-984): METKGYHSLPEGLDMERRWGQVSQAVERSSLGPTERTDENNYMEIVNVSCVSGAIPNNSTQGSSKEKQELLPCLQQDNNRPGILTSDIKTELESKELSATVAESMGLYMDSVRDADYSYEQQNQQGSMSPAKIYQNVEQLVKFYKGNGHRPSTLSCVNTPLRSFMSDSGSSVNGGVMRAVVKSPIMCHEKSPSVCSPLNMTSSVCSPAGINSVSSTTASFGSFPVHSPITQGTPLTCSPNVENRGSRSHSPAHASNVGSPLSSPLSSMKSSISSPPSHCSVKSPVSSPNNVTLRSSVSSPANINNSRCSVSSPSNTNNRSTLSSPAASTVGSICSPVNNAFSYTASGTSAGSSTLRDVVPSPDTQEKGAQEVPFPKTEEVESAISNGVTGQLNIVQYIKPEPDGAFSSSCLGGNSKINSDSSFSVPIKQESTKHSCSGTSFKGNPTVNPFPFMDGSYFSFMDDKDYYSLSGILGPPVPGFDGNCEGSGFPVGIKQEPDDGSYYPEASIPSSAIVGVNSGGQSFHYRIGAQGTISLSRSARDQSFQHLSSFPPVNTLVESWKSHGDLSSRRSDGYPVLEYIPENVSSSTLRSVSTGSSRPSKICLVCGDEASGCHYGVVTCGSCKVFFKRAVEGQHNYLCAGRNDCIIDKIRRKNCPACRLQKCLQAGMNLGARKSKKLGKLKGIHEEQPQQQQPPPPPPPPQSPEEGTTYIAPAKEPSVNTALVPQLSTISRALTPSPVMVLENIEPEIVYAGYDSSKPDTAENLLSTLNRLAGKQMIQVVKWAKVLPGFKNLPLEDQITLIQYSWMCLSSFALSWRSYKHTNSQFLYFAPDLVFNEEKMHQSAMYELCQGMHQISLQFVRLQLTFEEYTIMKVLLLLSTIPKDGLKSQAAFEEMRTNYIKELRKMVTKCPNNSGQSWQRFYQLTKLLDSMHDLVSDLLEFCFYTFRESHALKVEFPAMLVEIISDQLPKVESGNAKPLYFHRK
Assay: human MR NH Pro assay (PathHunter Protein:Protein interaction assay, MR antagonism)
Type: cell-based
Details: PathHunter CHO-K1 cells overexpressing human MR; aldosterone 0.3 nM; 6 hours at 37° C.; luminescence; read-out: IC50 rating
readout_kind: IC50

Here's what some known entries look like.
{"compound_smiles": "C[C@H](c1ccc(F)cc1)N1C(=O)O[C@](Cc2ccccc2)(C(=O)Nc2ccc(F)cc2)C1=O", "result": "100 to 500 nM"}
{"compound_smiles": "COc1cc(CNC(=O)[C@@]2(Cc3ccccc3)OC(=O)N([C@H](C)C3CCCCC3)C2=O)cc(OC)c1", "result": "< 100 nM"}
{"compound_smiles": "COc1cc(CNC(=O)[C@@]2(Cc3ccccc3)OC(=O)N([C@H](C)c3ccc(F)cc3)C2=O)cc(OC)c1", "result": "< 100 nM"}

Please find the next molecule below.
Please give the measured IC50 for this molecule: COc1cc(CNC(=O)[C@@]2(Cc3ccccc3)OC(=O)N([C@H](C)c3ccccc3)C2=O)cc(OC)c1
< 100 nM

Origin of values: patent US9505730B2
